Target: T1, recombinant human uPAR protein (Leu23-Arg303) with a C-terminal 6-his tag (human, UniProt Q03405 23-303)
T1 construct: also called CD87
T1 sequence (Q03405 other isoform, or with tags, fused parts or gaps): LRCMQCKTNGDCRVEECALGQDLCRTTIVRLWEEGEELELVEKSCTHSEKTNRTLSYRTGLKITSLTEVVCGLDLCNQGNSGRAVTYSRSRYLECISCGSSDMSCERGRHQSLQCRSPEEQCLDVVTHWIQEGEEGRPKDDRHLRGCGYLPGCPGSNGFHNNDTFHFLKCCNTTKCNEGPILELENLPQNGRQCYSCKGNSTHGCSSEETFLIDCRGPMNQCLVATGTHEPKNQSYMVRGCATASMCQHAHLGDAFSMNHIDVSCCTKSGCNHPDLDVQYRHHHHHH
Experiment: Biacore (SPR), single cycle kinetics
metric: Kd (nM)
Give just the numeric value; nM need not be written.

Fill in: Kd of 14C5 antibody (antibody, V domains shown) VH: QVQLKESGPGLVAPSQSLSITCTVSGFSLTSYGVHWVRQPPGKGLEWLGVLWAGGSTDYNSALMSRLSISKDNSKSQVFLKMNSLQTDDTAMYYCARGGLRQVFAYWGQGTLVTVSA VL: DVLMTQTPLSLPVSLGDQASISCRSSQSIVYSNGNTYLEWYLQKPGQSPKLLIYKVSNRFSGVPDRFSGSGSGTDFTLKISRVEAEDLGVYYCFQGSHVPYTFGGGTKLEMK is ___
42.4
